Below, each entry is listed alongside its reported folding stability dG.
B1: EHEE_rd4_0086 (parent)
chain: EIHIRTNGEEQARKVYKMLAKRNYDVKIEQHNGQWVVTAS

# Variants of: B1
# PROCEDURE_SUMMARY: folding stability dG (cDNA display proteolysis); higher = more stable
# EXPERIMENTAL_PARAMETERS: PBS, room temperature
Write the value in kcal/mol as a bare number.

Some entries whose results are on file:
MUTANT_DESIGNATION: T38L
MEASUREMENT_NAME: folding stability dG
NUMERIC_VALUE: 1.75
//
MUTANT_DESIGNATION: K17H
MEASUREMENT_NAME: folding stability dG
NUMERIC_VALUE: 1.83

Q: Entry K17G : reported folding stability dG = ?
A: 1.33
